Items are presented alongside their recorded IC50.
Target: Human nerve growth factor receptor (Homo sapiens)
Sequence (P04629 33-796): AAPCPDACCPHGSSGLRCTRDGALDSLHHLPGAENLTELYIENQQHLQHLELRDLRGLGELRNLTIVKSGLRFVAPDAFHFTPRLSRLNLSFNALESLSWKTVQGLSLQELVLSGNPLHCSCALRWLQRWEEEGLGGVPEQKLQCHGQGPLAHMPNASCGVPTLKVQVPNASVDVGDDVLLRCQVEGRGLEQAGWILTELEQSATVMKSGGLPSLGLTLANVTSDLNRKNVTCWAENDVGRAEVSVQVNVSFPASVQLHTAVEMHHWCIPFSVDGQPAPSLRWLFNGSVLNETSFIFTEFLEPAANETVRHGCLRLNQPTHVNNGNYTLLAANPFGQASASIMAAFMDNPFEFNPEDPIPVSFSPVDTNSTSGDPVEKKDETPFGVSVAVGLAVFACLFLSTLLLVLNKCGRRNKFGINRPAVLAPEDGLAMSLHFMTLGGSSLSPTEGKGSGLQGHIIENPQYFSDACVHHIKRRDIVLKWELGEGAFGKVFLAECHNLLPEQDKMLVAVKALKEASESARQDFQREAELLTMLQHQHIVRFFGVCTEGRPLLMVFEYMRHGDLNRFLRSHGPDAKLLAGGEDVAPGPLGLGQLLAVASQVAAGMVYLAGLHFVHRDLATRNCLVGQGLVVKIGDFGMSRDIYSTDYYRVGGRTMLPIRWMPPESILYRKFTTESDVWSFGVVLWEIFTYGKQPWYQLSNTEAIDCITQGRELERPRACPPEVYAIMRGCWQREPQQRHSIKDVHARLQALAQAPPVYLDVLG
Assay: Receptor inhibitory activity using cells expressing a nerve growth factor receptor (NGF-dependent intracellular Ca increase, FLIPR)
Details: HEK293 cells stably expressing Human nerve growth factor receptor; NGF about 100 to 150 ng/ml; Ca concentration change

compound="Cl.NC(=O)C1CCN(c2ncccc2NC(=O)c2coc(N3CCOCC3)n2)CC1 [Example 501, hydrochloride]" value="12 nM"
compound=NC(=O)CN1CCN(c2ccc(F)cc2NC(=O)c2coc(C3CCOCC3)n2)CC1 value="4.6 nM"
compound=COCCN(C)c1nc(C(=O)Nc2cccnc2N2CCN(CC(N)=O)CC2)cs1 value="11 nM"

Alright, here's another compound for you.
Data request, read-out IC50, for `COCCN(C)c1nc(C(=O)Nc2cccnc2N2CCC(C(N)=O)CC2)cs1` 9.5 nM
